Target: Bovine type 1 trypsin (Bos taurus)
Construct: purchased Sigma
Sequence (P00760 24-246): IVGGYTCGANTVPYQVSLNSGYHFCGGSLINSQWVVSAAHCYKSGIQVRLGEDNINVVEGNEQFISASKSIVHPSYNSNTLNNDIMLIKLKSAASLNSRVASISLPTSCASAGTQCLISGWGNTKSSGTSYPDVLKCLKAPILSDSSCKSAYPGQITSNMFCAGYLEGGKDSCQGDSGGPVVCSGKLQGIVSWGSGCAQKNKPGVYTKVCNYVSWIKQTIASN
Assay: Trypsin-catalyzed hydrolysis of chromogenic substrate, Ki
Assay type: biochemical
Conditions: 3.2 U/ml trypsin, 0.1-0.3 mM Spectrozyme TRY; read-out: Trp Ki
readout-name: pKi
Answers are plain numbers, as −log10 of the molar value.

substance	tested-on	pKi
5R,14R,18S,20aS-N-[3-(5-BENZYL-14-METHYI-4,7,13,16,17,20-HEXAOXOEICOSAHYDRO-3a,6,12,15,19-PENTAAZACYCLOPENTA-CYCLONONADECEN-18-YL)PROPYL]GUANIDINE TRIFLUOROACETIC ACID [Compound 21]	Bovine type 1 trypsin (Bos taurus)	7.66

Please turn your attention to the following entry.
Query block: Report pKi for 5R, 2S, 18S-N-[3-(5-NAPTHALEN-2-YLMETHYL-4, 17, 16, 17, 20-PENTAOXOEICOSAHYDRO-3a, 6, 15, 19-TETRAAZACYCLOPENTACYCLONONADECEN-18-YL)PROPYL] GUANIDINE TRIFLUOROACETATE HYDRATE [Compound 6]
Result block: 8.17

###

Biological target: human alpha-thrombin (Homo sapiens, UniProt P00734)
Construct: commercial human alpha-thrombin (American Diagnostica); purchased American Diagnostica
Assay: Thrombin-catalyzed hydrolysis of chromogenic substrate, Michaelis-Menten Ki
Assay type: biochemical
Conditions: 1 nM thrombin, 5-100 μM Spectozyme TH, 37° C., pH 7.4, Michaelis-Menten kinetics; read-out: Thr Ki
Mark Satisfied only when Ki stays strictly below 90 nM. Values equal to the cut-off are Not satisfied.

Answered examples (2):
substance	label-value
5R,15R,19S,21 AS-N-[3-(15-BENZHYDRYL-5-BENZYL-4,7,14,17,18,21-HEXAOXODOCOSAHYDRO-3a,6,13,16,20-PENTMZACYCLOPENTACYCLOEICOSEN-19-YL)PPROPYL]GUANIDINE TRIFLUOROACETIC ACID [Compound 19]	Satisfied
3S,6S,12R-N-[3-(12-BENZYL-2,5,11,14,20-PENTAOXO-23-THIA-4,10,13,19,24-PENTAAZATRICYCLO[19.2.1.3]-6,10-TETRACOSA-1(2H), 21-DIEN-3-YL)PROPYL]GUANIDINE [Compound 23]	Not satisfied

Query block: Lab note: Ki threshold 90 nM. Does this substance come in strictly under it? 5R, 2S, 18S-N-[3-(5-NAPTHALEN-2-YLMETHYL-4, 17, 16, 17, 20-PENTAOXOEICOSAHYDRO-3a, 6, 15, 19-TETRAAZACYCLOPENTACYCLONONADECEN-18-YL)PROPYL] GUANIDINE TRIFLUOROACETATE HYDRATE [Compound 6]
Result block: Satisfied

The reported measurements were obtained from patent US5888971A.
